# test.protocol: Metal chelating activity assessed as Cu2+-compound complex formation at 50 uM after 10 mins by UV-Vis spectroscopic method
Activity calls are given as the source filed them. The calls are words filed in the database; no cut-off is given here.
experimental.endpoint: Activity

Illustrative cases are given below, each with its answer.
chem_smiles=COc1cc(/C=C/C(=O)C(Cc2cn(CCC(=O)NCCCN3CCN(CCCNC(=O)CCN4CCN(CCCN[C@H]5CC[C@@]6(C)C(=CC[C@H]7[C@@H]8CC[C@H]([C@H](C)CCCC(C)C)[C@@]8(C)CC[C@@H]76)C5)CC4)CC3)nn2)C(=O)/C=C/c2ccc(O)c(OC)c2)ccc1O recorded_value=inactive
chem_smiles=COc1cc(/C=C/C(=O)C(Cc2cn(CCC(=O)NCCCN3CCN(CCCNCCN[C@H]4CC[C@@]5(C)C(=CC[C@H]6[C@@H]7CC[C@H]([C@H](C)CCCC(C)C)[C@@]7(C)CC[C@@H]65)C4)CC3)nn2)C(=O)/C=C/c2ccc(O)c(OC)c2)ccc1O recorded_value=inactive
chem_smiles=COc1cc(/C=C/C(=O)C(Cc2cn(CCNC(=O)CCC(=O)NCCCN3CCN(CCCNC(=O)CCN4CCN(CCCN[C@H]5CC[C@@]6(C)C(=CC[C@H]7[C@@H]8CC[C@H]([C@H](C)CCCC(C)C)[C@@]8(C)CC[C@@H]76)C5)CC4)CC3)nn2)C(=O)/C=C/c2ccc(O)c(OC)c2)ccc1O recorded_value=inactive
chem_smiles=COc1cc(/C=C/C(=O)C(Cc2cn(CCCCNC(=O)CCC(=O)NCCCN3CCN(CCCNC(=O)CCN4CCN(CCCN[C@H]5CC[C@@]6(C)C(=CC[C@H]7[C@@H]8CC[C@H]([C@H](C)CCCC(C)C)[C@@]8(C)CC[C@@H]76)C5)CC4)CC3)nn2)C(=O)/C=C/c2ccc(O)c(OC)c2)ccc1O recorded_value=inactive
chem_smiles=COc1cc(/C=C/C(=O)C(Cc2cn(CCCCC(=O)NCCCN3CCN(CCCNC(=O)CCC(=O)NCCCN4CCN(CCCNCCN[C@H]5CC[C@@]6(C)C(=CC[C@H]7[C@@H]8CC[C@H]([C@H](C)CCCC(C)C)[C@@]8(C)CC[C@@H]76)C5)CC4)CC3)nn2)C(=O)/C=C/c2ccc(O)c(OC)c2)ccc1O recorded_value=inactive
chem_smiles=COc1cc(/C=C/C(=O)C(Cc2cn(CCNC(=O)CCC(=O)NCCCN3CCN(CCCNCCN[C@H]4CC[C@@]5(C)C(=CC[C@H]6[C@@H]7CC[C@H]([C@H](C)CCCC(C)C)[C@@]7(C)CC[C@@H]65)C4)CC3)nn2)C(=O)/C=C/c2ccc(O)c(OC)c2)ccc1O recorded_value=inactive

Please look at the following compound next.
# Activity (compound: `COc1cc(/C=C/C(=O)C(Cc2cn(CCC(=O)NCCCN3CCN(CCCNC(=O)CCC(=O)NCCCN4CCN(CCCNCCN[C@H]5CC[C@@]6(C)C(=CC[C@H]7[C@@H]8CC[C@H]([C@H](C)CCCC(C)C)[C@@]8(C)CC[C@@H]76)C5)CC4)CC3)nn2)C(=O)/C=C/c2ccc(O)c(OC)c2)ccc1O` ) is inactive

----------
# test.protocol: Metal chelating activity assessed as Zn2+-compound complex formation at 50 uM after 10 mins by UV-Vis spectroscopic method
Activity calls are given as the source filed them. The rule behind the calls is not given here.
experimental.endpoint: Activity

chem_smiles=COc1cc(/C=C/C(=O)C(Cc2cn(CCCCC(=O)NCCCN3CCN(CCCNC(=O)CCC(=O)NCCCN4CCN(CCCNCCN[C@H]5CC[C@@]6(C)C(=CC[C@H]7[C@@H]8CC[C@H]([C@H](C)CCCC(C)C)[C@@]8(C)CC[C@@H]76)C5)CC4)CC3)nn2)C(=O)/C=C/c2ccc(O)c(OC)c2)ccc1O experimental_endpoint=Activity recorded_value=inactive
chem_smiles=COc1cc(/C=C/C(=O)C(Cc2cn(CCC(=O)NCCCN3CCN(CCCNCCN[C@H]4CC[C@@]5(C)C(=CC[C@H]6[C@@H]7CC[C@H]([C@H](C)CCCC(C)C)[C@@]7(C)CC[C@@H]65)C4)CC3)nn2)C(=O)/C=C/c2ccc(O)c(OC)c2)ccc1O experimental_endpoint=Activity recorded_value=inactive
chem_smiles=COc1cc(/C=C/C(=O)C(Cc2cn(CCC(=O)NCCCN3CCN(CCCNC(=O)CCC(=O)NCCCN4CCN(CCCNCCN[C@H]5CC[C@@]6(C)C(=CC[C@H]7[C@@H]8CC[C@H]([C@H](C)CCCC(C)C)[C@@]8(C)CC[C@@H]76)C5)CC4)CC3)nn2)C(=O)/C=C/c2ccc(O)c(OC)c2)ccc1O experimental_endpoint=Activity recorded_value=inactive

These entries and their values trace back to ChEMBL document CHEMBL4184300.
